// provenance: the supplement of paper PMC11246515

Assay: total protein half-life in vivo (active degradation + dilution); higher = more stable protein
Details: E. coli NCM3722 delta-smpB; growth: N-lim chemostat; doubling time 6 h
Reported Property: total protein half-life in vivo

[[record]]
sequence_data = "MKKLQIAVGIIRNENNEIFITRRAADAHMANKLEFPGGKIEMGETPEQAVVRELQEEVGITPQHFSLFEKLEYEFPDRHITLWFWLVERWEGEPWGKEGQPGEWMSLVGLNADDFPPANEPVIAKLKRL"
result = "5.16 h"

[[record]]
sequence_data = "MIYIGLPQWSHPKWVRLGITSLEEYARHFNCVEGNTTLYALPKPEVVLRWREQTTDDFRFCFKFPATISHQAALRHCDDLVTEFLTRMSPLAPRIGQYWLQLPATFGPRELPALWHFLDSLPGEFNYGVEVRHPQFFAKGEEEQTLNRGLHQRGVNRVILDSRPVHAARPHSEAIRDAQRKKPKVPVHAVLTATNPLIRFIGSDDMTQNRELFQVWLQKLAQWHQTTTPYLFLHTPDIAQAPELVHTLWEDLRKTLPEIGAVPAIPQQSSLF"
result = "2.97 h"


---

Test: total protein half-life in vivo (active degradation + dilution); higher = more stable protein
Conditions: wild type E. coli NCM3722; growth: C-lim chemostat; doubling time 6 h
Entries annotated with measured total protein half-life in vivo
Reported Property: total protein half-life in vivo (h)

[[record]]
sequence_data = "METVAYADFARLEMRVGKIVEVKRHENADKLYIVQVDVGQKTLQTVTSLVPYYSEEELMGKTVVVLCNLQKAKMRGETSECMLLCAETDDGSESVLLTPERMMPAGVRVV"
numeric_value = 4.74

[[record]]
sequence_data = "MRHIFQRLLPRRLWLAGLPCLALLGCVQNHNKPAIDTPAEEKIPVYQLADYLSTECSDIWALQGKSTETNPLYWLRAMDCADRLMPAQSRQQARQYDDGSWQNTFKQGILLADAKITPYERRQLVARIEALSTEIPAQVRPLYQLWRDGQALQLQLAEERQRYSKLQQSSDSELDTLRQQHHVLQQQLELTTRKLENLTDIERQLSTRKPAGNFSPDTPHESEKPAPSTHEVTPDEP [P0AD44]"
numeric_value = 6.14

[[record]]
sequence_data = "MTAPLTLLIVEDETPLAEMHAEYIRHIPGFSQILLAGNLAQARMMIERFKPGLILLDNYLPDGRGINLLHELVQAHYPGDVVFTTAASDMETVSEAVRCGVFDYLIKPIAYERLGQTLTRFRQRKHMLESIDSASQKQIDEMFNAYARGEPKDELPTGIDPLTLNAVRKLFKEPGVQHTAETVAQALTISRTTARRYLEYCASRHLIIAEIVHGKVGRPQRIYHSG [P0AEF4]"
numeric_value = 5.33

[[record]]
sequence_data = "MKKRKTVKKRYVIALVIVIAGLITLWRILNAPVPTYQTLIVRPGDLQQSVLATGKLDALRKVDVGAQVSGQLKTLSVAIGDKVKKDQLLGVIDPEQAENQIKEVEATLMELRAQRQQAEAELKLARVTYSRQQRLAQTKAVSQQDLDTAATEMAVKQAQIGTIDAQIKRNQASLDTAKTNLDYTRIVAPMAGEVTQITTLQGQTVIAAQQAPNILTLADMSAMLVKAQVSEADVIHLKPGQKAWFTVLGDPLTRYEGQIKDVLPTPEKVNDAIFYYARFEVPNPNGLLRLDMTAQVHIQLTDVKNVLTIPLSALGDPVGDNRYKVKLLRNGETREREVTIGARNDTDVEIVKGLEAGDEVVIGEAKPGAAQ"
numeric_value = 6.04

[[record]]
sequence_data = "MNIRDLEYLVALAEHRHFRRAADSCHVSQPTLSGQIRKLEDELGVMLLERTSRKVLFTQAGMLLVDQARTVLREVKVLKEMASQQGETMSGPLHIGLIPTVGPYLLPHIIPMLHQTFPKLEMYLHEAQTHQLLAQLDSGKLDCVILALVKESEAFIEVPLFDEPMLLAIYEDHPWANRECVPMADLAGEKLLMLEDGHCLRDQAMGFCFEAGADEDTHFRATSLETLRNMVAAGSGITLLPALAVPPERKRDGVVYLPCIKPEPRRTIGLVYRPGSPLRSRYEQLAEAIRARMDGHFDKVLKQAV [P0ACQ4]"
numeric_value = 5.1

[[record]]
sequence_data = "MNEHHQPFEEIKLINANGAEQWSARQLGKLLGYSEYRHFIPVLTRAKEACENSGHTIDDHFEEILDMVKIGSNAKRALKDIVLSRYACYLVVQNGDPAKPVIAAGQTYFAIQTRRQELADDEAFKQLREDEKRLFLRNELKEHNKQLVEAAQQAGVATATDFAIFQNHGYQGLYGGLDQKAIHQRKGLKKNQKILDHMGSTELAANLFRATQTEEKLKRDGVNSKQQANTTHFDVGRKVRQTIQELGGTMPEELPTPQVSIKQLENSVKITEKK"
numeric_value = 3.02


---

Assay: total protein half-life in vivo (active degradation + dilution); higher = more stable protein
Conditions: E. coli NCM3722 delta-lon; growth: N-lim chemostat; doubling time 6 h
Reported Property: total protein half-life in vivo (h)

[[record]]
sequence_data = "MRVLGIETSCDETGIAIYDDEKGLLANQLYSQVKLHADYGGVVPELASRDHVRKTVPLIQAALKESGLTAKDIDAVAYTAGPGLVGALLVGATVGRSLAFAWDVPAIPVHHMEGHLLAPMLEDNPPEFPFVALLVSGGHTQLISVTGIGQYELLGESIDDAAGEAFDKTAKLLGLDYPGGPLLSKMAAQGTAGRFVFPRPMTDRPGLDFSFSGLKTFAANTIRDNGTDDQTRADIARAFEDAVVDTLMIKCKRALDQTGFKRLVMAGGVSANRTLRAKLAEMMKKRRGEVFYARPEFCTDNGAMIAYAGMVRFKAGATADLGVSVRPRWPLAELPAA"
numeric_value = 4.84

[[record]]
sequence_data = "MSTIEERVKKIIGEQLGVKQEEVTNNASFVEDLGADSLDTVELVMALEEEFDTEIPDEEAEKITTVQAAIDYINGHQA [P0A6A8]"
numeric_value = 7.19


---

Assay: total protein half-life in vivo (active degradation + dilution); higher = more stable protein
Details: E. coli NCM3722 delta-hslV; growth: N-lim chemostat; doubling time 6 h
Please enter fulfilled where total protein half-life in vivo is greater than or equal to 5 h, and not fulfilled where it is lower.

[[record]]
sequence_data = "MKKIPLGTTDITLSRMGLGTWAIGGGPAWNGDLDRQICIDTILEAHRCGINLIDTAPGYNFGNSEVIVGQALKKLPREQVVVETKCGIVWERKGSLFNKVGDRQLYKNLSPESIREEVAASLQRLGIDYIDIYMTHWQSVPPFFTPIAETVAVLNELKSEGKIRAIGAANVDADHIREYLQYGELDIIQAKYSILDRAMENELLPLCRDNGIVVQVYSPLEQGLLTGTITRDYVPGGARANKVWFQRENMLKVIDMLEQWQPLCARYQCTIPTLALAWILKQSDLISILSGATAPEQVRENVAALNINLSDADATLMREMAEALER"
assigned_class = "not fulfilled"

[[record]]
sequence_data = "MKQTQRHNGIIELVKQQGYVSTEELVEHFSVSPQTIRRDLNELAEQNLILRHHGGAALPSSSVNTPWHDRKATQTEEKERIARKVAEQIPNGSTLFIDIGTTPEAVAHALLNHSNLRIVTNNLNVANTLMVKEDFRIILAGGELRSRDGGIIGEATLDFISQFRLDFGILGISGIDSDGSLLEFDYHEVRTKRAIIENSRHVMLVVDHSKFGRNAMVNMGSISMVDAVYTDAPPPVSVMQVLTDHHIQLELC [P0ACL0]"
assigned_class = "fulfilled"

[[record]]
sequence_data = "MDLASLRAQQIELASSVIREDRLDKDPPDLIAGADVGFEQGGEVTRAAMVLLKYPSLELVEYKVARIATTMPYIPGFLSFREYPALLAAWEMLSQKPDLVFVDGHGISHPRRLGVASHFGLLVDVPTIGVAKKRLCGKFEPLSSEPGALAPLMDKGEQLAWVWRSKARCNPLFIATGHRVSVDSALAWVQRCMKGYRLPEPTRWADAVASERPAFVRYTANQP"
assigned_class = "not fulfilled"

[[record]]
sequence_data = "MTTPTFDTIEAQASYGIGLQVGQQLSESGLEGLLPEALVAGIADALEGKHPAVPVDVVHRALREIHERADAVRRQRFQAMAAEGVKYLEENAKKEGVNSTESGLQFRVINQGEGAIPARTDRVRVHYTGKLIDGTVFDSSVARGEPAEFPVNGVIPGWIEALTLMPVGSKWELTIPQELAYGERGAGASIPPFSTLVFEVELLEIL [P0A9L3]"
assigned_class = "not fulfilled"

[[record]]
sequence_data = "MSIRIIPQDELGSSEKRTADMIPPLLFPRLKNLYNRRAERLRELAENNPLGDYLRFAALIAHAQEVVLYDHPLEMDLTARIKEASAQGKPPLDIHVLPRDKHWQKLLMALIAELKPEMSGPALAVIENLEKASTQELEDMASALFASDFSSVSSDKAPFIWAALSLYWAQMANLIPGKARAEYGEQRQYCPVCGSMPVSSMVQIGTTQGLRYLHCNLCETEWHVVRVKCSNCEQSGKLHYWSLDDEQAAIKAESCDDCDTYLKILYQEKDPKIEAVADDLASLVLDARMEQEGYARSSINPFLFPGEGE"
assigned_class = "not fulfilled"

[[record]]
sequence_data = "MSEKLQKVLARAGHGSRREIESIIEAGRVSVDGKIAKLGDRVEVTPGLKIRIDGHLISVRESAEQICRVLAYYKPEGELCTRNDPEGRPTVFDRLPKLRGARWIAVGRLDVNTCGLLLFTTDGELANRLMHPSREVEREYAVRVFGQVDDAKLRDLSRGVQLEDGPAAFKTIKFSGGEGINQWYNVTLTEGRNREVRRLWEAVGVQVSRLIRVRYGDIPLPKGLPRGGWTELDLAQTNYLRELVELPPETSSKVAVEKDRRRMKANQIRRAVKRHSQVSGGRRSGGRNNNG"
assigned_class = "fulfilled"

